The measurements presented in this section are drawn from patent US12582641B2.

Recorded IC50 for the following molecules
tested on: MM.1S cells; assay: Proliferation inhibition (IC50) in MM.1S cells, cell viability assay; conditions: Homo sapiens, MM1.S, 72 h, read-out: IC50 (nM), proliferation inhibitory activity of MM.1S cells (half inhibitory concentration)
readout-name: IC50 (nM)

O=C1CCC(N2Cc3c(SCc4cccc(CN5CCCCC5)c4)cccc3C2=O)C(=O)N1 (centres unmarked)    0.89
O=C1CCC(N2Cc3c(SCc4csc(CN5CCCCC5)n4)cccc3C2=O)C(=O)N1 (centres unmarked)    2.78
O=C1CCC(N2Cc3c(SCc4ccc(CN5CCCCCC5)o4)cccc3C2=O)C(=O)N1 (centres unmarked)    2.62
O=C1CCC(N2Cc3c(SCc4cccc(CNC5CCCCC5)c4)cccc3C2=O)C(=O)N1 (centres unmarked)    0.13
O=C1CCC(N2Cc3c(SCCCCCCCNC45CC(C4)C5)cccc3C2=O)C(=O)N1 (centres unmarked)    0.053
O=C1CCC(N2Cc3c(SCCCc4ccc(CNC5CCCCC5)cc4)cccc3C2=O)C(=O)N1 (centres unmarked)    0.11
O=C1CCC(N2Cc3c(SCCCCCCCN4CCCC4)cccc3C2=O)C(=O)N1 (centres unmarked)    0.12
O=C1CCC(N2Cc3c(SCc4nc(CN5CCSCC5)cs4)cccc3C2=O)C(=O)N1 (centres unmarked)    2.51
CC1(C)CCC(NCc2ccc(CSc3cccc4c3CN(C3CCC(=O)NC3=O)C4=O)cc2)CC1 (centres unmarked)    0.05
CC(=O)NCCCCCSc1cccc2c1CN(C1CCC(=O)NC1=O)C2=O (centres unmarked)    1.53
O=C1CCC(N2C(=O)c3cccc(SCc4ccc(CCCN5CCOCC5)cc4)c3C2=O)C(=O)N1 (centres unmarked)    2
O=C1CCC(N2Cc3c(SCCCCCCCCCCN4CCOCC4)cccc3C2=O)C(=O)N1 (centres unmarked)    0.46
CC1CC(C)CN(CCc2ccc(CSc3cccc4c3CN(C3CCC(=O)NC3=O)C4=O)cc2)C1 (centres unmarked)    0.023
O=C1CCC(N2Cc3c(SCc4ccc(CNC56CC(C5)C6)cc4)cccc3C2=O)C(=O)N1 (centres unmarked)    0.035
O=C1CCC(N2Cc3c(SCCCCCCCNC4CCCCC4)cccc3C2=O)C(=O)N1 (centres unmarked)    0.026
CC12CC3CC(C)(C1)CC(NC(=O)CCCCCCSc1cccc4c1CN(C1CCC(=O)NC1=O)C4=O)(C3)C2 (centres unmarked)    0.578
O=C1CCC(N2Cc3c(SCCCCCCNCC45CC6CC(CC(C6)C4)C5)cccc3C2=O)C(=O)N1 (centres unmarked)    0.028
CC1(C)[C@@H]2CC[C@@]1(C)[C@@H](NCCCCCCCSc1cccc3c1C(=O)N(C1CCC(=O)NC1=O)C3=O)C2 (some centres unmarked)    0.258
CC(C)N(C(=O)CCCCCCSc1cccc2c1CN(C1CCC(=O)NC1=O)C2=O)C(C)C (centres unmarked)    0.07
O=C1CCC(N2Cc3c(SCc4ccc(CN5CCSCC5)cc4)cccc3C2=O)C(=O)N1 (centres unmarked)    0.144
CN1C(=O)CCC(N2Cc3c(SCCCCCCCNC45CC6CC(CC(C6)C4)C5)cccc3C2=O)C1=O (centres unmarked)    21.9
O=C(CCCCN1CCCCC1)NCCSc1cccc2c1CN(C1CCC(=O)NC1=O)C2=O (centres unmarked)    43
O=C1CCC(N2Cc3c(SCCCCCCCCN4CCC(F)(F)CC4)cccc3C2=O)C(=O)N1 (centres unmarked)    0.26
O=C1CCC(N2Cc3c(SCc4ccc(CCCNC56CC7CC(CC(C7)C5)C6)cc4)cccc3C2=O)C(=O)N1 (centres unmarked)    0.028
O=C1CCC(N2Cc3c(SCCCC(F)(F)C(F)(F)F)cccc3C2=O)C(=O)N1 (centres unmarked)    4.73
CCN(CC)Cc1ccc(CSc2cccc3c2CN(C2CCC(=O)NC2=O)C3=O)cc1 (centres unmarked)    0.285
O=C1CCC(N2Cc3c(SCc4ccc(CCN5CCC(F)(F)CC5)cc4)cccc3C2=O)C(=O)N1 (centres unmarked)    0.025
O=C1CCC(N2Cc3c(SCc4cc(Br)c(CNC56CC7CC(CC(C7)C5)C6)cc4Br)cccc3C2=O)C(=O)N1 (centres unmarked)    0.11
O=C1CCC(N2Cc3c(SCCCCCN4CCOCC4)cccc3C2=O)C(=O)N1 (centres unmarked)    2.52
C[C@@H](NCc1ccc(CSc2cccc3c2CN(C2CCC(=O)NC2=O)C3=O)cc1)C1CC1 (some centres unmarked)    0.095
O=C1CCC(N2Cc3c(SCCCCCCCNC4CCCC4)cccc3C2=O)C(=O)N1 (centres unmarked)    0.123
O=C1CCC(N2Cc3c(SCc4cccc(CNC56CC7CC(CC(C7)C5)C6)c4)cccc3C2=O)C(=O)N1 (centres unmarked)    0.03
